The measurements presented in this section are drawn from PubChem BioAssay (NCI).

tested on: MDA-MB-435; assay: NCI tumour cell line growth inhibition, 48 h
Where TGI equals or exceeds 7 µM, the correct label is Satisfied; where it does not, the label is Not satisfied.

Form field: TGI at least 7 µM? Entry: Cc1ccc(-n2c(O)c3c(N)n[nH]c3c(C#N)c2=O)cc1
Satisfied

Form field: TGI at least 7 µM? Entry: C=CCN(c1cc(OCc2ccccc2)c(NC(C)=O)cc1[N+](=O)[O-])S(C)(=O)=O
Satisfied

Form field: TGI at least 7 µM? Entry: C[N+](C)([O-])CCCNc1c2ccccc2nc2cccc([N+](=O)[O-])c12
Not satisfied

Form field: TGI at least 7 µM? Entry: CCOC(=O)c1cc2c(n1Cc1cc(OC)cc(OC)c1)-c1oncc1CCC2
Not satisfied

Form field: TGI at least 7 µM? Entry: NC(=O)C(Br)CBr (centres undefined)
Not satisfied

Form field: TGI at least 7 µM? Entry: O=c1c2ccccc2n2nnc3ccc(NCCCNCCNCCCNc4ccc5nnn6c7ccccc7c(=O)c4c56)c1c32
Satisfied

Form field: TGI at least 7 µM? Entry: O=C(Nc1nnc(-c2ccccc2)o1)C(SC(=S)N1CCOCC1)c1ccccc1 (centres undefined)
Satisfied

Form field: TGI at least 7 µM? Entry: Fc1ccc(C2CC(c3cccc(Nc4ccncc4)c3)=NN2c2cc(Cl)cc(Cl)c2)cc1 (centres undefined)
Not satisfied
